System: human apolipoprotein B mRNA
PROCEDURE_TEXT: Inhibition of human apolipoprotein B mRNA levels in HepG2 cells, quantitative real-time PCR
Type: cell-based
PROTOCOL_CONDITIONS: HepG2 cells treated with 150 nM of compound; averages from two experiments; quantitative real-time PCR
In the oligonucleotide strings, read from the 5' end, every base follows the letter of its sugar. An asterisk marks phosphorothioate; unmarked linkages are phosphodiester. Other units and linkages are bracketed, terminal groups are in braces. A string of capitals states the bases alone. e = 2'-O-(2-methoxyethyl) (MOE); [5mC] = 5-methylcytosine; d = 2'-deoxy (DNA)
Reported % INHIB (inhibition of human apolipoprotein B mRNA levels) values for a set of substances
Please state the figure in %; there is no need to write the unit.

Prompt line: For the substance 270988 (antisense eG*eG*eG*eT*eT*dG*dA*dA*dG*d[5mC]*d[5mC]*dA*dT*dA*d[5mC]*eA*e[5mC]*e[5mC]*eT*e[5mC]) [compound 270988] , what % INHIB (inhibition of human apolipoprotein B mRNA levels) is on record?
Response line: 6

Prompt line: Look up % INHIB (inhibition of human apolipoprotein B mRNA levels) for this substance: 271007 (antisense e[5mC]*eT*eG*eA*eG*d[5mC]*dA*dG*d[5mC]*dT*dT*dG*dA*d[5mC]*dT*eG*eG*eT*e[5mC]*eT) [compound 271007]
Response line: 26

Prompt line: Give the measured % INHIB (inhibition of human apolipoprotein B mRNA levels) of 271003 (antisense eG*eA*e[5mC]*eA*e[5mC]*d[5mC]*dA*dT*d[5mC]*dA*dG*dG*dA*dA*d[5mC]*eT*eT*eG*eA*e[5mC]) [compound 271003] .
Response line: 46

Prompt line: Quick one: % INHIB (inhibition of human apolipoprotein B mRNA levels) for 270985 (antisense eT*eT*e[5mC]*e[5mC]*eT*d[5mC]*dT*dT*d[5mC]*dG*dG*d[5mC]*d[5mC]*d[5mC]*dT*eG*eG*e[5mC]*eG*e[5mC]) [compound 270985] ?
Response line: 75

Prompt line: Entry 301031 (eA*eA*eG*eG*e[5mC]*dT*dG*dG*d[5mC]*dT*d[5mC]*dA*d[5mC]*dT*dG*eT*eA*eT*eG*eG; antisense) [compound 301031] : reported % INHIB (inhibition of human apolipoprotein B mRNA levels) = ?
Response line: 90

Prompt line: What value of measured % INHIB (inhibition of human apolipoprotein B mRNA levels) is listed for 270999 (antisense eG*eT*eT*eG*eA*d[5mC]*d[5mC]*dG*d[5mC]*dG*dT*dG*dG*d[5mC]*dT*e[5mC]*eA*eG*e[5mC]*eG) [compound 270999] ?
Response line: 76

Prompt line: Which measured % INHIB (inhibition of human apolipoprotein B mRNA levels) value corresponds to 281630 (antisense e[5mC]*eG*eT*e[5mC]*e[5mC]*dA*dG*dT*dA*dA*dG*d[5mC]*dT*d[5mC]*d[5mC]*eA*e[5mC]*eG*e[5mC]*e[5mC]) [compound 281630] ?
Response line: 82

Prompt line: Look up % INHIB (inhibition of human apolipoprotein B mRNA levels): 271001 (antisense e[5mC]*e[5mC]*e[5mC]*eA*eT*dG*dG*dT*dA*dG*dA*dA*dT*dT*dT*eG*eG*eA*e[5mC]*eA) [compound 271001]
Response line: 53

Prompt line: Data request, read-out % INHIB (inhibition of human apolipoprotein B mRNA levels), for 301217 (antisense eA*eG*eA*e[5mC]*eT*d[5mC]*d[5mC]*dA*dT*dT*dT*dA*dT*dT*dT*eG*eT*eT*e[5mC]*e[5mC]) [compound 301217]
Response line: 81

Prompt line: Query: % INHIB (inhibition of human apolipoprotein B mRNA levels); subject: 281624 (antisense eG*eG*eT*eT*e[5mC]*dT*dA*dG*d[5mC]*d[5mC]*dG*dT*dA*dG*dT*eT*eT*e[5mC]*e[5mC]*e[5mC]) [compound 281624]
Response line: 75

Prompt line: Form field: reported % INHIB (inhibition of human apolipoprotein B mRNA levels) of 301023 (eT*eA*eG*eA*eG*dG*dA*dT*dG*dA*dT*dA*dG*dT*dA*eA*eG*eT*eT*e[5mC]; antisense) [compound 301023]
Response line: 69

Source: patent US7803930B2
